Tested on: Escherichia coli TOP10;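 note: peptides expressed intracellularly from a pBAD plasmid library in pooled LB shake-flask culture, induced with 0.3% L-arabinose, DNA abundance read by NGS, three biological replicates, DESeq2 with apeglm shrinkage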
Assay: shrunken log2 fold change of peptide-encoding DNA abundance (4.5 h post-induction vs induction); higher = less antimicrobial activity (less host growth inhibition)
Settings: time post-induction: 4.5 h; library: site-saturation at positions 5, 18, 19, 20
Would you please tag the item True when its shrunken log2 fold change is 0.06 or above, and False when it is below?

RRIRNRPPRLPRPRPRPVSEPRP: False

Q) Say whether `RRIRGRPPRLPRPRPRPEEIPRP` shows shrunken log2 fold change of 0.06 or more.
A) True

Q) Identify whether the reported shrunken log2 fold change of the following sequence is 0.06 or greater: `RRIRWRPPRLPRPRPRPESYPRP`
A) False
